Reported melting point values follow for various molecules

Some entries whose results are on file:
CCC(=O)NCCC1=CCc2cnc3c(c21)CCO3 | 111 to 112 °C
N#Cc1cc(-c2nc3cncnc3s2)ccc1Sc1cccc(F)c1 | 189 to 190 °C
CCCN1Cc2cc(Oc3cccc(NCc4c(C)cc(C)cc4C)c3)ccc2N=C1N | 238 °C

Query :: I'd like to know its melting point. The molecule in question is `O=C1c2cc(Cl)c(Cl)cc2-c2cc(O)cc3cccc1c23`
Result :: 355 to 360 °C

Query :: Next record, please: CCC(=O)SCC(CC(=O)c1ccccc1)C(=O)O (stereo not given)
Result :: 76 to 78 °C

====

Reported melting point values follow for various molecules

Some entries whose results are on file:
COC(=O)CCc1c(C=O)ccc2c1CCC(NS(=O)(=O)c1ccc(Cl)cc1)C2 (stereo not given) | 110 °C
CC(C)(C)OC(=O)N1CCCN(c2ccnc3sc(C(N)=O)c(N)c23)CC1 | 177 to 178 °C
COc1ccc(/C=C(\C#N)c2ccccc2Cl)cc1OC1CCCC1 | 94 to 95 °C
CNC(NCCSCc1nccc(NC(N)=NCC(F)(F)F)n1)=C(C#N)C#N | 173 to 174 °C

Query :: I'd like to know its melting point. The molecule in question is `c1ccc(Cn2c(-c3ccc4c(c3)OCO4)nc3ccccc32)cc1`
Result :: 143 to 145 °C

====

recorded endpoint: melting point

Some entries whose results are on file:
Cc1ccc(CN2CCN(C3=NC4(C=CC(=O)C(Cl)=C4)C(c4ccccc4)=C3)CC2)cc1 (configuration not stated) | 161 °C
CCCOc1c(OC)cc(C(CCC(C(=O)O)c2cc(OC)c(OC)c(OC)c2)C(=O)O)cc1SC (configuration not stated) | 172 to 174 °C
CC(C)n1nc(-c2sc(C(=O)NCc3ccccn3)nc2-c2cccc(Cl)c2)ccc1=O | 168 to 170 °C
Nc1cc(Cl)nc(Cl)c1[N+](=O)[O-] | 136 to 138 °C
O=C=Nc1ccc(C(=S)OC2CCCCC2)c(Cl)c1 | 60 to 65 °C

Query :: I'd like to know its melting point. The compound in question is `COc1ccc(CN(C)CCc2ccc(NC(=O)c3cccc4c(=O)c5cccc(C)c5[nH]c34)c(C)c2)cc1OC`
Result :: 160 to 161 °C

Query :: Next record, please: `N#Cc1cccc(C(=O)c2ccc(Cl)cc2)c1`
Result :: 142 °C

Query :: Next record, please: `COc1ccc(NC2(C(N)=O)CCOCC2)cc1`
Result :: 141 to 143 °C

====

recorded endpoint: melting point

COc1cc(C=O)ccc1OCC#CI | 121 to 127 °C
CS(=O)(=O)c1cc(C(=O)O)ccc1Oc1ccc(C(O)CSc2ccccn2)cc1 (stereo not given) | 169 to 174 °C
CNC(=O)c1c(NC(=O)CCl)c(OC)c(C(=O)NC)c([N+](=O)[O-])c1OC | 259 to 260 °C
Clc1cnc2c(-c3ccccc3)nc(Cl)nc2c1 | 140 to 141 °C

Query :: I'd like to know its melting point. The compound in question is `COC(=O)NCc1nc2ccn(Cc3ccc(F)cc3)cc-2n1`
Result :: 179 °C

====

Reported melting point values follow for various compounds

Some entries whose results are on file:
CC(C)(C)NC(=O)[C@@H]1[C@@H](O)CCN1C(=O)OC(C)(C)C | 122 to 124 °C
C(=Cc1cc2cc3ccccc3cc2s1)c1ccccc1 | 305 to 307 °C
CCCCc1nc2ccccn2c(=O)c1-c1ccc(N[C@@H]2CCN(C)C2)cc1 | 64 to 66 °C

API: the following record is the query input.
Query :: I'd like to know its melting point. The compound in question is `Cc1nc(O)c(C)c(NCCc2ccncc2)n1`
Result :: 250 to 252 °C

====

Reported melting point values follow for various compounds

CC(C)n1nc2c(F)cccc2c1-c1ccc(O)cc1O | > 160 °C
CSc1c(C(=O)O)ccc(C)c1C | 118 to 120 °C
CCc1c(Sc2cc(Cl)cc(Cl)c2)c(CC#N)nn1CCO | 84 to 85 °C
CN(Cc1ccccc1O)c1nc(N(C)Cc2ccccc2O)nc(N(C)Cc2ccccc2O)n1 | 199 to 200 °C
CNC(=O)N(C)c1nnc(C(C)(CCl)CCl)s1 | 150 to 152 °C

Query :: I'd like to know its melting point. The compound in question is `O=C(O)Cn1c(=O)n(Cc2ccc(Br)cc2F)c(=O)c2ccc(Br)cc21`
Result :: 217 °C

Query :: Next record, please: `Cc1c(-c2ccco2)c(N2CC[C@H](N(C)C)C2)c2oc(C3CC3)nc2c1C#N`
Result :: 158 to 159 °C

Query :: Next record, please: `O=C(c1ccc(I)cc1)c1cc2c3c(c1)c(-c1cccc(Cl)c1)cc(=O)n3CC2`
Result :: 202 °C

Query :: Next record, please: `CCCCc1oc2ccccc2c1C(=O)NCc1ccc2c(-c3ccccc3)c(O)ccc2c1`
Result :: 72 °C

Query :: Next record, please: `CCCCc1nn2ccccc2c1C(=O)c1ccc(C#N)cc1`
Result :: 116 °C

Query :: Next record, please: `CC(C)(C)OC(=O)CNC(=O)CC(C1CCCCC1)C1CCCCC1`
Result :: 72 to 74 °C

====

Reported melting point values follow for various molecules

COC(=O)c1nc(C)n2c1C(C)N=C(c1ccccc1)c1cc(Cl)ccc1-2 (stereo not given) | 217 to 221 °C
CCOC(=O)C1=C(C)NC(=S)N(S(C)(=O)=O)C1c1cccc([N+](=O)[O-])c1 (stereo not given) | 161 to 163 °C
OCC1OC(n2cnc3c(SCc4ccccc4)cc(Cl)nc32)C(O)C1O (stereo not given) | 154 to 156 °C
CCCOCCOC(=O)C1=C(C)NN=C(CC)C1c1cccc([N+](=O)[O-])c1 (stereo not given) | 76 °C

Query :: I'd like to know its melting point. The molecule in question is O=C1C(CCO)Oc2cc([N+](=O)[O-])ccc2N1Cc1cccc([N+](=O)[O-])c1 (stereo not given)
Result :: 157 to 160 °C

====

recorded endpoint: melting point

O=C(c1ccccc1)C1CCN(CCN(C(=O)c2ccc([N+](=O)[O-])cc2)c2cccnc2)CC1 | 134 to 136 °C
COc1ccc(-c2cc(C)cn2-c2ccc(S(N)(=O)=O)cc2)cc1C | 149 to 151 °C
Cc1cc(C(F)(F)F)cc(N(C(N)=O)c2c(Cl)cccc2Cl)n1 | 165 °C
O=[N+]([O-])c1ccc(CF)cc1 | 33 to 34 °C
CCCCCN(CCCCC)CCC(O)(P(=O)(O)O)P(=O)(O)O | 47 to 49 °C

Query :: I'd like to know its melting point. The compound in question is `O=C(NC/C=C\COc1cc(CN2CCCCC2)ccn1)c1ccc[nH]1`
Result :: 136 to 137 °C

====

recorded endpoint: melting point

Some entries whose results are on file:
c1cnn(Cc2ccc3c(c2)Cc2c(-c4ccsc4)n[nH]c2-3)n1 | 238 to 241 °C
CCCCCS(=O)(=O)NC(=O)/C=C/c1cc(C2CC2)nn1Cc1ccc(C(F)(F)F)cc1Cl | 139 to 140 °C
COc1ccc(CN2CCC(N3Cc4cc(Cl)c(S(N)(=O)=O)cc4C3=O)CC2)cc1 | 207 to 210 °C
NC(=O)C1(Cl)CC2C3CC4C2C4C31 (stereo unspecified) | 124 to 126 °C
O=C(O)c1cc2c(C(F)(F)F)c(F)ccc2[nH]1 | 204 to 210 °C

Query :: I'd like to know its melting point. The compound in question is `O=C(NCc1ccc(C=NO)cc1Cl)C1CC1`
Result :: 163 to 166 °C

Query :: Next record, please: `Cc1ccc(C)c(OCc2ccccc2CCl)c1`
Result :: 46.5 to 48.5 °C

Query :: Next record, please: `O=C(c1ccc(-c2ccc(O)cc2)cc1)C1CC=CC1`
Result :: 153 to 155 °C

Query :: Next record, please: `C=CCc1c(O)ccc2oc(C(=O)c3ccc(F)cc3)c(C)c12`
Result :: 164 to 166 °C

Query :: Next record, please: O=C1CC(O)CC(C=Cc2c3c(nn2-c2ccc(F)cc2)C(Cc2ccccc2)CCC3)O1 (racemic)
Result :: 185 to 187 °C

Query :: Next record, please: `CN(CCCNC1=CC(=O)c2sc(C(=O)N3CCOCC3)nc2C1=O)CCCNC1=CC(=O)c2sc(C(=O)N3CCOCC3)nc2C1=O`
Result :: 207 to 208 °C

Query :: Next record, please: `OCCNc1nnc(-c2ccc(F)c(F)c2Nc2ccc(I)cc2F)o1`
Result :: 100 to 103 °C

Query :: Next record, please: `Cc1cc2cc(CN(C)C)cnc2cc1NC(=O)c1ccc(-c2ccc(F)cc2)cc1`
Result :: 183 to 186 °C
